Molecular target: Bs-CspB F30A (Bacillus subtilis, UniProt P32081 1-67, F30A)
Test: tryptophan fluorescence quenching
MEASURED_METRIC: pKd
Please keep in mind that pKd is minus log10 of the molar concentration; only the number is needed.

Entry TTTTTTT (ssDNA) [dT7] — recorded pKd = 6.68
